- tested_target: Phosphatidylinositol 5-phosphate 4-kinase type-2 alpha (Homo sapiens) (UniProt P48426)
- Sequence (P48426 whole entry, looked up): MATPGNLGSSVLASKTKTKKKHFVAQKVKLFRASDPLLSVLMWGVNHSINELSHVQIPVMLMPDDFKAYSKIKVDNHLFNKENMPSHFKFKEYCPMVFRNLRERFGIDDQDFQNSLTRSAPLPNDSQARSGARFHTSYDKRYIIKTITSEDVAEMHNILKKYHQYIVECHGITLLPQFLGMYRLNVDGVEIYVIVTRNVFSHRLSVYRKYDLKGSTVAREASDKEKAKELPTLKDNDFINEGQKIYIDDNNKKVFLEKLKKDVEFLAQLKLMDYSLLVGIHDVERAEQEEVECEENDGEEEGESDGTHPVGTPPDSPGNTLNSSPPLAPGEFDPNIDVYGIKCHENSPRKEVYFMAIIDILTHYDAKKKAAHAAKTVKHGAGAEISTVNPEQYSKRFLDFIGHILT
- experiment_summary: qHTS for Inhibitors of phosphatidylinositol 5-phosphate 4-kinase (PI5P4K); further: value at the top dose of about 77 µM; on the % scale 0 is the no-effect control and ±100 the full control effect
- particulars: PI5P4Kalpha enzyme, ADP-Glo luminescence, 60 min
The whole screen tested about 330,000 compounds, of which about 4,100 (1.2%) were called active. Roughly 2% stayed inconclusive and do not appear here. How the source made its calls: active means max response of -50% or lower; inconclusive means between -30% and -50%; inactive means -30% or higher. Shown is part of a subset that was picked to be rich in actives.
Could you please pick one outcome from this set? active, inactive

# example entries with known answers
O=P(OC1=CCCCC1)(c1ccccc1)c1ccccc1	inactive
COc1cc(C(=O)N2Cc3ccc(Br)cc3-n3nncc3C2)cc(OC)c1OC	inactive
COc1cccc(N2C(=O)NC(=O)/C(=C\c3ccc([N+](=O)[O-])s3)C2=O)c1	active

# fetch the recorded call for "CC(=O)NCC1=C(c2ccc3ccccc3c2)C[C@@H]2CC[C@H]1N2Cc1ccco1" here
inactive

What call does the record list for "S=C(NCCc1ccccc1)N1Cc2cc(N3CCOCC3)ccc2-n2nncc2C1" ?
inactive

----------
- tested_target: Phosphatidylinositol 5-phosphate 4-kinase type-2 alpha (Homo sapiens) (UniProt P48426)
- experiment_summary: qHTS for Inhibitors of phosphatidylinositol 5-phosphate 4-kinase (PI5P4K); further: value at the top dose of about 77 µM; on the % scale 0 is the no-effect control and ±100 the full control effect
- particulars: PI5P4Kalpha enzyme, ADP-Glo luminescence, 60 min; hits give low values
Among all 330,000 compounds or so, about 4,100 (1.2%) were called active. Inconclusive results (about 2%) are left out. Shown is part of a subset that was picked to be rich in actives.
reported_property: max response (%)
Give bare numbers, in %.

A selection of reference data follows.
O=c1[nH]c(=O)n(Cc2ccccc2)c(O)c1/C=N/Nc1c(F)c(F)c(F)c(F)c1F	4.31
CCOC(=O)[C@]12Cc3ccccc3[C@H]1N(C1CCCCC1)C(=O)c1cc(OC)ccc12	-1.4
COC(=O)C1=C(c2ccc(OCc3ccccc3)cc2)C[C@@H]2CC[C@H]1N2C(=O)NCc1cccc(F)c1	0.749
C=CCN(CC=C)C(=O)Nc1ccc(OCC)cc1	-4.12
O=C(N/N=C/c1c(O)n(Cc2ccccc2)c(=O)[nH]c1=O)c1ccccc1	-53.6

Provide max response for all items below, preserving their order.
1. CCOC(=O)[C@]12Cc3cc(OC)ccc3[C@H]1N(C(C)C)C(=O)c1ccccc12
2. O=C(CN1CCCC1=O)NCCc1ccccc1

[1.48, 1.78]

Give measured max response for every item shown.
1. CCC(=NCCc1ccccc1)c1c(O)n(C2CCCCC2)c(=O)[nH]c1=O
2. O=C1NCN(c2ccccc2)C12CCN(C(c1cccs1)c1nnnn1C1CCCCC1)CC2 (stereo not given)
3. COc1ccc(N2C(=O)/C(=C/c3ccco3)C(=O)NC2=S)cc1

1: -4.68; 2: -2.62; 3: -103

----------
- tested_target: Phosphatidylinositol 5-phosphate 4-kinase type-2 alpha (Homo sapiens)
- experiment_summary: qHTS for Inhibitors of phosphatidylinositol 5-phosphate 4-kinase (PI5P4K); further: value at the top dose of about 77 µM; on the % scale 0 is the no-effect control and ±100 the full control effect
- particulars: PI5P4Kalpha enzyme, ADP-Glo luminescence, 60 min
About 4,100 (1.2%) of roughly 330,000 compounds were called active. Inconclusive results (about 2%) are left out. How the source made its calls: active means max response of -50% or lower; inconclusive means between -30% and -50%; inactive means -30% or higher. The sample holds actives, similar compounds and a random draw of the others, so the mix is not that of the screen.
Hi! Could you answer with just one of these? class 1 (active), class 0 (inactive)

CC(=CCOc1ccc2ccc(=O)oc2c1)C1=CC(=O)C(C)(C)O1	class 0
Cc1ccccc1N1C(=O)NC(=O)/C(=C\c2cc(C)n(C)c2C)C1=O	class 0
O=c1c2ccccc2nc(CBr)n1-c1ccc(Cl)cc1	class 0
O=c1c2ccccc2[nH]c(=S)n1-c1cccc(Cl)c1	class 0
COc1cccc(C(c2nnnn2-c2ccc3c(c2)OCCO3)N2CCC3(CC2)C(=O)NCN3c2ccccc2)c1OC (stereo not given)	class 0

Entry "Cc1ncoc1C(=O)NCC1=C(c2cccc3ccccc23)C[C@@H]2CC[C@H]1N2Cc1ccco1" : call = ?
class 0

// param item: COC(=O)CN(CCCl)P1(=O)OCCCN1CCCl (stereo not given) ; yields the recorded call
class 0
